Answer each item with its documented koff.
Target: T1, Macaca fascicularis IL2Rγ extracellular domain expressed with a C-terminal myc-myc-hexahistidine tag (Macaca fascicularis)
T1 construct: whole entry is the tagged construct; also called mfIL-2Rg-MMH
T1 chain: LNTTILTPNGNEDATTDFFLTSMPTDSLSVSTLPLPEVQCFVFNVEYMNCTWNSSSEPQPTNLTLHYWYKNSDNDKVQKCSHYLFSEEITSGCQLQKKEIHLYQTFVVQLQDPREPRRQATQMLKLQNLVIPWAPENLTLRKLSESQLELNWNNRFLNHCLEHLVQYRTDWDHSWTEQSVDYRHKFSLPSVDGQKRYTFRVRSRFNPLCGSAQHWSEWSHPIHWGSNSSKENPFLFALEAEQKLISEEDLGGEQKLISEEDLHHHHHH
Assay: SPR Biacore 4000, anti-hFc-captured mAb, 37 C
Reply numerically in s⁻¹, unit not repeated.

Exercise: Quick one: koff for H4H12858P (antibody, human IgG4 S228P, kappa, V domains shown, fully human anti-IL2Rgamma mAb, human IgG4 Fc; also called REGN9433) VH: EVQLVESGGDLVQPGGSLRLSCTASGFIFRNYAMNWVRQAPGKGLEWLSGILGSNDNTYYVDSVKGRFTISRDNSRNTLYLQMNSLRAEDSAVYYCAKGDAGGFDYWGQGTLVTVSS VL: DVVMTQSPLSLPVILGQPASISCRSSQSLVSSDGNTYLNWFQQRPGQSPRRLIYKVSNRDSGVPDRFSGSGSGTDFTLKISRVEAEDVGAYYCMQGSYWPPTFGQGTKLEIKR ?
Key: 0.00148

Exercise: Param item = H4H12874P (antibody, human IgG4 S228P, kappa, V domains shown, fully human anti-IL2Rgamma mAb, human IgG4 Fc) VH: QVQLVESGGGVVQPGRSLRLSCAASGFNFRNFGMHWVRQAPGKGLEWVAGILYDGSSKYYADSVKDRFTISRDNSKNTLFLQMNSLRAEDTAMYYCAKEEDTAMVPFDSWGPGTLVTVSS VL: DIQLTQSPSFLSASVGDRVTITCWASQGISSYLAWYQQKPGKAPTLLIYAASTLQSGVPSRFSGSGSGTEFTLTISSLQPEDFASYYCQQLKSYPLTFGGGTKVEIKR ; retrieve measured koff.
Key: 0.00116

Exercise: Need koff of H4H12890P (antibody, human IgG4 S228P, kappa, V domains shown, fully human anti-IL2Rgamma mAb, human IgG4 Fc) VH: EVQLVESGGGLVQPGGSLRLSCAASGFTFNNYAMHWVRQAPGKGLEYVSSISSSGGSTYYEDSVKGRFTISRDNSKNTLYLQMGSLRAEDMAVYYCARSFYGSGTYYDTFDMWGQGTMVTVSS VL: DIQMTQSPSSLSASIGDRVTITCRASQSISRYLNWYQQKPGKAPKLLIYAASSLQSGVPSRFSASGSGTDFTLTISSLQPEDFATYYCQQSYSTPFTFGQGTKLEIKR , thanks.
Key: 0.00131

Exercise: Reported koff for H4H12886P (antibody, human IgG4 S228P, kappa, V domains shown, fully human anti-IL2Rgamma mAb, human IgG4 Fc) VH: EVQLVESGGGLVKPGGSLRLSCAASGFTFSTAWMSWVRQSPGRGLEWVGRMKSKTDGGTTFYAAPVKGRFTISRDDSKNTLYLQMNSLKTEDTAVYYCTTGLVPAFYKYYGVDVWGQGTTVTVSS VL: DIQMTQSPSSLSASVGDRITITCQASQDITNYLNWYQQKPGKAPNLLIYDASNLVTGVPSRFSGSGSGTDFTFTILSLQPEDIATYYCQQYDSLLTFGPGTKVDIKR : what is it?
Key: 0.000846

Exercise: Given the entry H4H12900P (antibody, human IgG4 S228P, kappa, V domains shown, fully human anti-IL2Rgamma mAb, human IgG4 Fc) VH: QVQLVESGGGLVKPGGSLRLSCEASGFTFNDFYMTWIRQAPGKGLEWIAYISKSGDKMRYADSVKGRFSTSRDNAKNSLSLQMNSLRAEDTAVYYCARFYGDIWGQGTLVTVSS VL: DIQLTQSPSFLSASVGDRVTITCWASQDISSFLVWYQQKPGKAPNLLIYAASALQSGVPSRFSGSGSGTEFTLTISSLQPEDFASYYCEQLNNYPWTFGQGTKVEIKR , report its measured koff.
Key: 0.00154

meta.source: patent US20200247894A1
